Taken from patent US20220362394A1.

Recorded measurements of pEC50, one per entry
test system: U266B1; assay: Cell killing with drug-conjugated 2° antibody (internalization), U266B1; type: cell-based, human; conditions: Conjugate P 2° antibody 20 nM, 72 hrs
Scale explanation: pEC50 corresponds to minus log10 of a concentration expressed in moles per litre.

**Query** # query: pEC50 of entry 11D6: chicken antibody, VH SEQ ID NO 198, VL SEQ ID NO 220 (antibody, V domains shown, Synthetic 11D6, VH; Synthetic 11D6, VL) VH: AVTLDESGGGLQTPGGTLSLVCKASGFTFSSFNMFWVRQAPGEGLEWVAYIRNDGRSTSYGPAVKGRATISRDNGQSTVRLQLNNLRAEDTGTYFCAKTTCVGSGGCIDTWGHGTEVIVSS VL: ALTQPSSVSANPGETVEITCSGGNSDYGWFQQKSPGSAPVTVIYRNNQRPSDIPSRFSGSGSGSTNTLTITGVQAEDEAIYYCGNVDFTDDVFGAGTTLTVL
**Result** 8.96

**Query** Please give the measured pEC50 for this molecule: 9E12: chicken antibody, VH SEQ ID NO 209, VL SEQ ID NO 231 (antibody, V domains shown, Synthetic 9E12, VH; Synthetic 9E12, VL) VH: AVTLDESGGGLQTPGGGLSLVCKASGFTFSDYGLGWMRQAPGKGLEYVARINSAGSGTYYGSAVDGRATISRDNGQSTVRLQLNNLRAEDTGTYYCTRGGGGASIDGWGHGTEVIVSS VL: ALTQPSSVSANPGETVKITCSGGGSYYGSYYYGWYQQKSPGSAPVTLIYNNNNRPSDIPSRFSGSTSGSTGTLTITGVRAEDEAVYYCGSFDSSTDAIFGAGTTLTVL
**Result** 8.85
